Provenance of the data: patent US20190085024A1

Experimental target: Cathepsin L (Homo sapiens, UniProt P07711)
Sequence (P07711 114-333, species assumed): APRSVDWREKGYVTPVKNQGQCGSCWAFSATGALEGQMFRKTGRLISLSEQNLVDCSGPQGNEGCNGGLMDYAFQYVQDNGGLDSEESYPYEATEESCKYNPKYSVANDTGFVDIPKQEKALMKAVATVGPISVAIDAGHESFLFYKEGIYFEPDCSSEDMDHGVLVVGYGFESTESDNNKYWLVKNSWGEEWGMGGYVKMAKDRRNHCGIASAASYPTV
Assay protocol: Cathepsin L enzyme assay
Assay type: biochemical
Condition summary: Ki by Morrison equation; pH 5.5, substrate Z-Phe-Arg-Amc; read-out: Cat L
Classify: Condition met when Ki is strictly less than 10 nM; Condition not met when Ki is not.

Some solved entries appear below for comparison.
1) CC(NC(=O)C(Cc1ccccc1)NC(=O)Cc1ccccc1)C(=O)C(=O)NC(Cc1ccccc1)C(=O)NC(C)(C)C(=O)NCCN1CCOCC1 (stereo not shown); Condition not met
2) CCC(C)C(NC(=O)C(CC(C)C)NC(=O)CN1CCOCC1)C(=O)C(=O)NCC(=O)N(C)C(Cc1ccccc1)C(N)=O (stereo not shown); Condition met
3) CCC(C)C(NC(=O)C(=O)C(C)NC(=O)C(Cc1ccccc1)NC(=O)Cc1ccccc1)C(=O)NC(C)(C)C(=O)OC (stereo not shown); Condition not met
4) CC(C)CC(NC(=O)C(Cc1ccccc1)NC(=O)OCc1ccccc1)C(=O)NC(Cc1ccccc1)C(=O)C(=O)NC(CCCNC(=N)N)C(N)=O (stereo not shown); Condition met
5) CCC(C)C(NC(=O)C(CC(C)C)NC(=O)OCc1ccccc1)C(=O)C(=O)N(C)C(Cc1ccccc1)C(N)=O (stereo not shown); Condition not met

Is the reported Ki for CC(C)CC(NC(=O)OCc1ccccc1)C(=O)NC(C)C(=O)C(=O)NC(Cc1ccncc1)C(N)=O (stereo not shown) strictly below 10 nM?
Condition not met

Is the reported Ki for CC(NC(=O)C(Cc1ccccc1)NC(=O)c1ccccc1)C(=O)C(=O)NC(Cc1ccccc1)C(=O)NC(C)(C)C(N)=O (stereo not shown) strictly below 10 nM?
Condition not met

Is the reported Ki for CC(NC(=O)[C@H](Cc1ccccn1)NC(=O)Cc1ccccc1)C(=O)C(=O)N[C@@H](Cc1ccccc1)C(=O)N[C@@H](Cc1ccccc1)C(N)=O (stereo partly shown) strictly below 10 nM?
Condition not met

Is the reported Ki for CCC(C)C(NC(=O)C(=O)C(C)NC(=O)C(Cc1ccccc1)NC(=O)Cc1ccc2ccccc2c1)C(=O)NC(C)(C)C(=O)O (stereo not shown) strictly below 10 nM?
Condition not met

Is the reported Ki for CCC(C)C(NC(=O)C(CC1CC1)NC(=O)OCc1ccccc1)C(=O)C(=O)NCC(=O)NC(Cc1ccc2ccccc2c1)C(N)=O (stereo not shown) strictly below 10 nM?
Condition not met

Is the reported Ki for CCC(C)C(NC(=O)C(CC(C)C)NC(=O)OCc1ccccc1)C(=O)C(=O)NCC(=O)NC(Cc1ccc(OC)cc1)C(N)=O (stereo not shown) strictly below 10 nM?
Condition met

Is the reported Ki for CC(C)CC(NC(=O)OCc1ccccc1)C(=O)NC(Cc1ccccc1)C(=O)C(=O)NCC(=O)NC(Cc1ccc2ccccc2c1)C(N)=O (stereo not shown) strictly below 10 nM?
Condition met

Is the reported Ki for CC(NC(=O)C(Cc1ccccc1)NC(=O)Cc1ccccc1)C(=O)C(=O)NC(Cc1ccccc1)C(=O)NC(C)(C)C(N)=O (stereo not shown) strictly below 10 nM?
Condition not met
